System: DYRK1B
RUN CONDITIONS: concentration: 1 μM,replicates: in singlicate; n = 1;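 also: KINOMEscan kinase panel screen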
Binary call on %Inh: yes (1) from 20% upward, no (0) beneath that.

Exercise: Dear colleague, could you confirm whether Cl.Cl.NC[C@H](CC1CCCCC1)NC(=O)c1cc(Br)c(-c2ccnc3[nH]ccc23)s1 [GSK1581427] has %Inh at or above 20%?
Key: yes (1)

Exercise: Dear colleague, could you confirm whether Cl.Oc1cc(-c2nc(-c3ccccc3)[nH]c2-c2ccncc2)ccc1Cl [SB-386023] has %Inh at or above 20%?
Key: no (0)

Exercise: Dear colleague, could you confirm whether C[C@@H]1CCN(C(=O)CC#N)C[C@@H]1N(C)c1ncnc2[nH]ccc12 has %Inh at or above 20%?
Key: no (0)

Exercise: Dear colleague, could you confirm whether Cc1n[nH]c2ccc(-c3cc(OC[C@@H](N)Cc4ccccc4)cnc3-c3ccoc3)cc12.O=C(O)C(F)(F)F.O=C(O)C(F)(F)F [GSK507358] has %Inh at or above 20%?
Key: yes (1)

Exercise: Dear colleague, could you confirm whether Nc1nc(Nc2ccccc2)cc(-c2ccc3c(N)n[nH]c3c2)n1 [GSK2225749] has %Inh at or above 20%?
Key: no (0)

----------
Hi there, I'd appreciate the recorded %Inh for every entry that follows.
Tested on: TLK2
RUN CONDITIONS: concentration: 1 μM,replicates: in singlicate; n = 1
One number for each entry, in %.

Look over these answered cases.
CCN(CC)CCOc1ccc(Nc2ncc3cc(-c4c(Cl)cccc4Cl)c(=O)n(C)c3n2)cc1 : 2
Cc1cc(C(=O)Nc2ccc(Oc3ccc4nc(NC(=O)C5CC5)cn4n3)cc2)nn1-c1ccccc1 : 0
Nc1nc(Nc2ccccc2)cc(-c2ccc3c(N)n[nH]c3c2)n1 : 2
NC(=O)c1cc(-c2ccccc2)cc2c(C3CCNCC3)c[nH]c12 : 0
Cl.Oc1cc(-c2nc(-c3ccccc3)[nH]c2-c2ccncc2)ccc1Cl : 0
O=C(NCCNc1ccnc(NCc2ccc(F)cc2)n1)c1cc2ccccc2s1 : 0
Cc1n[nH]c2ccc(-c3cc(OC[C@@H](N)Cc4ccccc4)cnc3-c3ccoc3)cc12.O=C(O)C(F)(F)F.O=C(O)C(F)(F)F : 0

Shift focus to the following entry.
Exercise: Fill blank: measured %Inh of the compound CCn1c(-c2nonc2N)nc2c(C#CC(C)(C)O)nc(OCCN)cc21.Cl.Cl is ____.
Key: 0

----------
Test system: BRSK1
RUN CONDITIONS: concentration: 1 μM,replicates: in singlicate; n = 1
Response field label: string, one of 1 (%Inh strictly below 3%) or -1.

C[C@@H]1CCN(C(=O)CC#N)C[C@@H]1N(C)c1ncnc2[nH]ccc12 : 1
Cc1n[nH]c2ccc(-c3cc(OC[C@@H](N)Cc4ccccc4)cnc3-c3ccoc3)cc12.O=C(O)C(F)(F)F.O=C(O)C(F)(F)F [GSK507358] : 1
NC(=O)c1cc(-c2ccccc2)cc2c(C3CCNCC3)c[nH]c12 [GSK301362] : -1
Cl.Cl.Nc1nc(-c2ccc3c(N)n[nH]c3c2)cc(N2CCCC(NC(=O)c3ccccc3)C2)n1 (stereo not shown) [GSK2286775] : 1

Exercise: Could you please tell me whether %Inh recorded for Cc1occc1-c1nc(N)c(OC[C@@H](N)Cc2c[nH]c3ccccc23)cc1-c1cc2c(C)n[nH]c2cn1 [GSK1660450] is less than 3%?
Key: -1

Exercise: Could you please tell me whether %Inh recorded for Cl.Cl.NC[C@H](Cc1ccc(C(F)(F)F)cc1)NC(=O)c1cc(Br)c(-c2ccnc3[nH]ccc23)s1 [GSK1487252] is less than 3%?
Key: -1

Exercise: Could you please tell me whether %Inh recorded for Cl.Cl.NC[C@H](CC1CCCCC1)NC(=O)c1cc(Br)c(-c2ccnc3[nH]ccc23)s1 [GSK1581427] is less than 3%?
Key: 1

Exercise: Could you please tell me whether %Inh recorded for O=C(NCCCN1CCOC1=O)c1cnc(NCc2cc(Cl)ccc2Cl)nc1NC1CCCC1 is less than 3%?
Key: 1

Exercise: Could you please tell me whether %Inh recorded for O=C(NCCNc1ccnc(NCc2ccc(F)cc2)n1)c1cc2ccccc2s1 [GSK1379944] is less than 3%?
Key: 1
